# target of assay: Cholecystokinin receptor type A (Mus musculus, UniProt O08786)
# Sequence (O08786 whole entry): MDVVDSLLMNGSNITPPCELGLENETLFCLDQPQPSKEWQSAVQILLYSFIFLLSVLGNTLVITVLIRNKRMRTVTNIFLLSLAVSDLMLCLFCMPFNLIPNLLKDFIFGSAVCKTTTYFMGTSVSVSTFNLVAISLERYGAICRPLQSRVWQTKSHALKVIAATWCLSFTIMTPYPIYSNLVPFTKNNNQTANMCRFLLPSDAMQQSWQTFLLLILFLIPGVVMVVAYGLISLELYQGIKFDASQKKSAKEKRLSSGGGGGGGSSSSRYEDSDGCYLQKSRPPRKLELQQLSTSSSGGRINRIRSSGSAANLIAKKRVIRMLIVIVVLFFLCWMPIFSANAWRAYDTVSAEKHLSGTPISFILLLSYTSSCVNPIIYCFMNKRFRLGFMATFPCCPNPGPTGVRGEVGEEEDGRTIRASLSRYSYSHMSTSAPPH
# assay procedure: Agonist activity at mouse CCK1 receptor
Listed below: pEC50 values for each entry.
The quantity pEC50 is defined as the negative base-10 logarithm of the molar concentration.

Some entries whose results are on file:
CCOc1cccc(-n2cc(C(=O)N3CCN(c4cc(C(=O)O)c5ccccc5c4)C[C@H]3C(=O)NC(C)C)nc2-c2ccc(C)cc2F)c1
10.47
CCOc1cccc(-n2cc(C(=O)N3CCN(c4cc(C(=O)O)c5ccccc5c4)C[C@H]3C(=O)NC(C)C)nc2-c2ccc(C)cc2)c1
9.96
CCOc1cccc(-n2cc(C(=O)N3CCN(c4cnc5ccccc5c4)C[C@H]3C(=O)NCC(=O)O)nc2-c2ccc(C)cc2)c1
9.96
CCOc1cccc(-n2cc(C(=O)N3CCN(c4cc(C(=O)O)c5ccccc5c4)C[C@H]3CNC(C)=O)nc2-c2ccc(C)cc2F)c1
9.89

Switching to the query record.
stdin: Value lookup for pEC50; key = CCOc1cccc(-n2cc(C(=O)N3CCN(c4cnc5ccccc5c4)C[C@@H]3COCC(=O)O)nc2-c2ccc(C)cc2)c1
stdout: 9.30

###

Listed below: EC50 values for each entry.
# target of assay: Cholecystokinin receptor type A (Homo sapiens, UniProt P32238)
# Sequence (P32238 whole entry): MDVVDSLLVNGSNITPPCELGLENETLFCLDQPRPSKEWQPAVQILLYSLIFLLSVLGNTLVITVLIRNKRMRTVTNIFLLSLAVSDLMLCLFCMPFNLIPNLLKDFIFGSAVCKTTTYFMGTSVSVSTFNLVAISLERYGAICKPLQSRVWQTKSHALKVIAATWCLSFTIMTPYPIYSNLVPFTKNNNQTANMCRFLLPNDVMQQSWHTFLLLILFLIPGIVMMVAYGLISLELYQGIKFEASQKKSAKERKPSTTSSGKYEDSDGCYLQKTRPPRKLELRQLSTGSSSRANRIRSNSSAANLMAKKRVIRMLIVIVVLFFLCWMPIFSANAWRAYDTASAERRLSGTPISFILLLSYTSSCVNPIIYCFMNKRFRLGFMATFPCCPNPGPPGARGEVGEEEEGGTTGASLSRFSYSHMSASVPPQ
# assay procedure: Agonist activity at human CCK1 receptor
Give the value, in units of nM, as a plain number.

Some entries whose results are on file:
CCOc1cccc(-n2cc(C(=O)N3CCN(c4cc(C(=O)O)c5ccccc5c4)C[C@H]3CNC(=O)NC)nc2-c2ccc(C)cc2F)c1
0.074
CCOc1cccc(-n2cc(C(=O)N3CCN(c4cc(C(=O)O)c5ccccc5c4)C[C@@H]3CNC(=O)NC)nc2-c2ccc(C)cc2)c1
0.13
CCOc1cccc(-n2cc(C(=O)N3CCN(c4cnc5ccccc5c4)C[C@@H]3C(=O)NC(C)C)nc2-c2ccc(C)cc2)c1
0.18

stdin: Value lookup for EC50; key = CCOc1cccc(-n2cc(C(=O)N3CCN(c4cc(C(=O)O)c5ccccc5c4)C[C@@H]3CNS(C)(=O)=O)nc2-c2ccc(C)cc2)c1
stdout: 0.095

stdin: Would you mind doing CCOc1cccc(-n2cc(C(=O)N3CCN(c4cc(C(=O)O)c5ccccc5c4)C[C@H]3CNS(C)(=O)=O)nc2-c2ccc(C)cc2F)c1 as well?
stdout: 0.1

stdin: Would you mind doing CCOc1cccc(-n2cc(C(=O)N3CCN(c4cnc5ccccc5c4)C[C@@H]3CNS(C)(=O)=O)nc2-c2ccc(C)cc2)c1 as well?
stdout: 0.21

###

# target of assay: Cholecystokinin receptor type A (Mus musculus) (UniProt O08786)
# Sequence (whole entry): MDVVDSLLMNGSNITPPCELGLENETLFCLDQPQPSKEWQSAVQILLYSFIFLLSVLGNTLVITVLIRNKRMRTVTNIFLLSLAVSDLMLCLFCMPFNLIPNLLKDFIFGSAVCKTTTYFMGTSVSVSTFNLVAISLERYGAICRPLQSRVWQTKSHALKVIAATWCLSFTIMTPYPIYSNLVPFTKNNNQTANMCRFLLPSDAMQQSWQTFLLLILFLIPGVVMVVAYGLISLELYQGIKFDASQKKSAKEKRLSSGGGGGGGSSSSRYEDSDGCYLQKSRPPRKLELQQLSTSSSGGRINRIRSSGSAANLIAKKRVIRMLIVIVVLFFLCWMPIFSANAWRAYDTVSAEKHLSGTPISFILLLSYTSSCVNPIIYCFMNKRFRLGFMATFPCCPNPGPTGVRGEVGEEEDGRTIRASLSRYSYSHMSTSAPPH
# assay procedure: Agonist activity at mouse CCK1 receptor relative to cholecystokinin 8
# Assay type: functional
reported property: Activity (%)
Give the value, in units of %, as a plain number.

Some entries whose results are on file:
CCOc1cccc(-n2cc(C(=O)N3CCN(c4cnc5ccccc5c4)C[C@H]3C(=O)NCC(=O)O)nc2-c2ccc(C)cc2)c1
99
CCOc1cccc(-n2cc(C(=O)N3CCN(c4cnc5ccccc5c4)C[C@@H]3COCC(=O)O)nc2-c2ccc(C)cc2)c1
84

stdin: Request: Activity, test system Cholecystokinin receptor type A (Mus musculus) (UniProt O08786), entry CCOc1cccc(-n2cc(C(=O)N3CCN(c4cc(C(=O)O)c5ccccc5c4)CC3)nc2-c2ccc(C)cc2F)c1
stdout: 56
